test system: SK-MEL-28 melanoma cells; experiment: MTT cell viability, SK-MEL-28; type: cell-based, human; details: Homo sapiens, SK-MEL-28, 48 h, read-out: IC50 (48 h) SK-MEL-28 cells
Recorded metric: IC50 (µM)
API: value field is a number in µM; no unit string.

# IC50 lookup, item CCOC(=O)c1ccc(OC)cc1 [E4MB, ethyl 4-methoxybenzoate]
750

###

assay: MTT cell viability, Saos-2; type: cell-based; details: human, Saos-2 osteosarcoma cells
Recorded metric: viability at 75 µM (%)
Report only the number, with the unit % understood.

Name the reported viability at 75 µM value associated with the compound CCOC(=O)c1ccc(O)cc1 [Ethyl 4-hydroxybenzoate, ethyl 4-hydroxybenzoate]
86

###

assay: MTT cell viability, BJ; assay type: cell-based; conditions: human, BJ skin fibroblast cells
Recorded metric: viability at 75 µM (%)
Numeric only. Scale: %

Can you look up the measured viability at 75 µM of CCOC(=O)c1ccc(O)cc1 [Ethyl 4-hydroxybenzoate, ethyl 4-hydroxybenzoate] for me?
89

###

assay: MTT cell viability, PC-3; assay type: cell-based; settings: human, PC-3 prostate cells
Recorded metric: viability at 75 µM

Requested field: viability at 75 µM. Item: CCOC(=O)c1ccc(O)cc1 [Ethyl 4-hydroxybenzoate, ethyl 4-hydroxybenzoate]
85%

Origin of measurements: paper PMC2821678
